Target: T1, IFN-α4a (human, UniProt P05014 24-189)
T1 construct: Recombinant, HEK293; also called IFN-αM1
Experiment: ProteOn SPR, cell supernatant;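 further: each binding measurement used just a single antigen concentration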
experimental endpoint: pKd
// pKd here means minus log10 of the molar concentration (mol/L)

INSERT INTO results (binder, result_number) VALUES
  ('IFWM3378 (antibody, IgG1, V domains shown, mAb; IgG1/kappa said of the parent and of selected mAbs; also called IFWB3113) VH: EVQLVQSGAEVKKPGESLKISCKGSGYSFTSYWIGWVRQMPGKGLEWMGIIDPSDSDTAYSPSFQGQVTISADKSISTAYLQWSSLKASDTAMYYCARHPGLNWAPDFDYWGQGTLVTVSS VL: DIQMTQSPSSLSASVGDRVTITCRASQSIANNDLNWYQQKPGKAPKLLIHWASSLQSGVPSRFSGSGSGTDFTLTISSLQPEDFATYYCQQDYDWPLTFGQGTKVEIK', 9.27);

Recorded pKd of IFWM3409 (antibody, IgG1, V domains shown, mAb; IgG1/kappa said of the parent and of selected mAbs; also called IFWB3144) VH: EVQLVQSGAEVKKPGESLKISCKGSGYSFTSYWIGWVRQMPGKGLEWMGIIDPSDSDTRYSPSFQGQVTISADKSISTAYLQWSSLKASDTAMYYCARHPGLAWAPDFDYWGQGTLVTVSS VL: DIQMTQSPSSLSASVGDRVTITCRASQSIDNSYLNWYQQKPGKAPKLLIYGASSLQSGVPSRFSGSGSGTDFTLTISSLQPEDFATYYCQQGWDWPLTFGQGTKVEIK , please. 10.24

Then IFWM3415 (antibody, IgG1, V domains shown, mAb; IgG1/kappa said of the parent and of selected mAbs; also called IFWB3150) VH: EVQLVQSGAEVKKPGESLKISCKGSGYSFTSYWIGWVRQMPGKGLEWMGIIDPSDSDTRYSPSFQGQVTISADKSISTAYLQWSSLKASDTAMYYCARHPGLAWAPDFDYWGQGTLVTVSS VL: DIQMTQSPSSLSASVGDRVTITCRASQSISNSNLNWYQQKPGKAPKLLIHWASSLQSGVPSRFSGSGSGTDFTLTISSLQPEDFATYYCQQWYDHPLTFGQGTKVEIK ? 10.16

Then IFWM3386 (antibody, IgG1, V domains shown, mAb; IgG1/kappa said of the parent and of selected mAbs; also called IFWB3121) VH: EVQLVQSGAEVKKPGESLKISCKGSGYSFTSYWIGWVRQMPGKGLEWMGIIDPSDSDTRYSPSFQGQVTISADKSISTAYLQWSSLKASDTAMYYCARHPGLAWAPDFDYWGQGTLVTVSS VL: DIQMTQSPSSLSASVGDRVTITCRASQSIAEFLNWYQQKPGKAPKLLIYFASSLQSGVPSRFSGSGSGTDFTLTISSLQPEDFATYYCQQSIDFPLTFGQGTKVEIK ? 9.99

Then IFWM3400 (antibody, IgG1, V domains shown, mAb; IgG1/kappa said of the parent and of selected mAbs; also called IFWB3135) VH: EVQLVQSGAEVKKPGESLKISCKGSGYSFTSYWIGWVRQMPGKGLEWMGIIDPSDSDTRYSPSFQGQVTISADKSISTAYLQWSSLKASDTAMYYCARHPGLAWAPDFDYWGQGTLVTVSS VL: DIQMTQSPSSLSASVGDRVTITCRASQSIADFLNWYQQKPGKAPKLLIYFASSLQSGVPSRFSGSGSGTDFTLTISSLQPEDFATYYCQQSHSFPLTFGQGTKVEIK ? 9.87

Then IFWM3388 (antibody, IgG1, V domains shown, mAb; IgG1/kappa said of the parent and of selected mAbs; also called IFWB3123) VH: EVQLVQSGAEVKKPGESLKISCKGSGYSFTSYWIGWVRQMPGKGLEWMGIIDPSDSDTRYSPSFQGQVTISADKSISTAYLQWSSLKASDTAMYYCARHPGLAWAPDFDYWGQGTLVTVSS VL: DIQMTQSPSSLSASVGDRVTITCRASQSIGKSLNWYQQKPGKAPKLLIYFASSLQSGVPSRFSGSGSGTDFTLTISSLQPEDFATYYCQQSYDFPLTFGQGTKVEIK ? 10.08
